Origin of measurements: patent US20100087413A1

target: human 11β-HSD2 (Homo sapiens); construct: expressed in transfected cells; host or cells: HEK-293 cells, stably transfected; cell lysate; test: 11β-HSD2 oxidase activity (conversion of radiolabelled cortisol to cortisone) in lysates of stably transfected HEK-293 cells; format: biochemical; conditions: determination 2; 7 inhibitor concentrations at factor 2 intervals; read-out: IC 50 11β-HSD2, determination 2
readout name: IC50 (nM)
# output: bare number, implied unit nM

Known value: human 11β-HSD2 (Homo sapiens) IC50 of the molecule C[C@H]1CC[C@]2(C)[C@H]3C(=O)C=C4[C@@H]5C[C@@](C)(C(=O)O)CC[C@]5(C)CC[C@@]4(C)[C@]3(C)CC[C@H]2C1(C)C equals 54.6

---

biological target: human 11β-HSD2 (Homo sapiens, UniProt P80365); construct: expressed in transfected cells; host or cells: HEK-293 cells, stably transfected; cell lysate; test: 11β-HSD2 oxidase activity (conversion of radiolabelled cortisol to cortisone) in lysates of stably transfected HEK-293 cells; assay type: biochemical; settings: determination 1; 7 inhibitor concentrations at factor 2 intervals
readout name: IC 50 11β-HSD2, determination 1

COC(=O)[C@@]1(C)CC[C@]2(C)CC[C@]3(C)C(=CC(=O)[C@@H]4[C@@]5(C)CC[C@H](Oc6ccccc6C(=O)O)C(C)(C)[C@@H]5CC[C@]43C)[C@@H]2C1    out of range
C[C@H]1CC[C@]2(C)[C@H]3C(=O)C=C4[C@@H]5C[C@@](C)(C(=O)O)CC[C@]5(C)CC[C@@]4(C)[C@]3(C)CC[C@H]2C1(C)C    out of range
CC(=O)OC1CC[C@]2(C)C3=C(C(=O)C[C@H]2C1(C)C)[C@]1(C)CCC(C(C)CCC(=O)O)[C@@]1(C)CC3=O (stereo partly shown)    out of range

---

biological target: human 11β-HSD1 (Homo sapiens, UniProt P28845); construct: expressed in transfected cells; host or cells: HEK-293 cells, stably transfected; cell lysate; assay: 11β-HSD1 reductase activity (conversion of radiolabelled cortisone to cortisol) in lysates of stably transfected HEK-293 cells; format: biochemical; details: 20 μM compound, 100 nM cortisone substrate, HEK-293 lysate
Sequence (P28845 whole entry): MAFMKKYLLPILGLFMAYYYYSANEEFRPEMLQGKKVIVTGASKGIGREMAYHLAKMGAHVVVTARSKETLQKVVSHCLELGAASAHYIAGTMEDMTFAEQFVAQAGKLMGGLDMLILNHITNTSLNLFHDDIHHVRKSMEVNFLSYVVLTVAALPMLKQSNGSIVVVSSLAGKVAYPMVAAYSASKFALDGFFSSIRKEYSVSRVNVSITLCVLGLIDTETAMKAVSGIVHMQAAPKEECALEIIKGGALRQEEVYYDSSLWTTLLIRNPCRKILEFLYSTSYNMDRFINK
readout name: 11β-HSD1 % of control

Recorded 11β-HSD1 % of control, per entry:
COc1cc2c(cc1OC)C(COc1ccc([N+](=O)[O-])cc1)N(C(=O)c1ccc(Cl)c([N+](=O)[O-])c1)CC2 (stereo not shown)    78.64 % of control
COc1ccc(CNC(=O)C2CCC(=O)N2C2CCCC2)cc1OC (stereo not shown)    94.07 % of control
CCOc1ccc(C2C(C(=O)c3ccc(Cl)cc3)=C(O)C(=O)N2CCCn2ccnc2)cc1OCC (stereo not shown)    41.32 % of control
CCN(CC(O)COc1cc(C)c(Cl)c(C)c1)S(=O)(=O)O (stereo not shown)    102.1 % of control
CCC(Sc1nnc(-c2ccc(OC)c(OC)c2)c(-c2ccc(OC)c(OC)c2)n1)C(=O)N(CC)CC (stereo not shown)    48.36 % of control
COc1ccc(C(=O)C2=C(O)C(=O)N(CCCn3ccnc3)C2c2ccccc2)cc1Cl (stereo not shown)    48.94 % of control

Sure, the documented 11β-HSD1 % of control for COCCC1C(=O)C(O)=C(C(=O)c2ccc(OC)c(C)c2)C1c1ccc(Cl)cc1Cl (stereo not shown) is 30.65 % of control

Sure, the documented 11β-HSD1 % of control for COc1ccc(C(=O)CNc2cccc(Cl)c2Cl)c(C(F)(F)F)c1 is 79.64 % of control

Sure, the documented 11β-HSD1 % of control for COc1cc(/C=N/NC(=O)CSc2nc3ccccc3n2Cc2ccc(C)cc2)cc(OC)c1OC(C)=O is 76.73 % of control

Sure, the documented 11β-HSD1 % of control for CCCCOc1ccc(C(=O)C2=C(O)C(=O)N(CCOC)C2c2cccnc2)c(C)c1 (stereo not shown) is 60.25 % of control

---

Target: human 11β-HSD2 (Homo sapiens)
Construct: expressed in transfected cells; host or cells: HEK-293 cells, stably transfected; cell lysate
Sequence (P80365 1-405): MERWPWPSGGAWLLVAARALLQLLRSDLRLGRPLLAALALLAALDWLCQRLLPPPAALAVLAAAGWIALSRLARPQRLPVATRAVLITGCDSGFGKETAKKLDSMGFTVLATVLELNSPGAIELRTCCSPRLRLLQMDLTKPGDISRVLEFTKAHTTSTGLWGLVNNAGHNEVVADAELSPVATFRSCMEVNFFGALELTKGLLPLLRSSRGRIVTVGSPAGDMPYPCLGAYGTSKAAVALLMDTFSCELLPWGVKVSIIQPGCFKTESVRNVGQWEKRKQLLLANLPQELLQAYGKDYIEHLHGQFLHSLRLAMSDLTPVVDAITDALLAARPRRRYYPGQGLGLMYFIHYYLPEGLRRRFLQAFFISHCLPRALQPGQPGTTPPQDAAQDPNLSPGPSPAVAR
Experiment: 11β-HSD2 oxidase activity (conversion of radiolabelled cortisol to cortisone) in lysates of stably transfected HEK-293 cells
Type: biochemical
Settings: determination 3; 7 inhibitor concentrations at factor 2 intervals; read-out: IC 50 11β-HSD2, determination 3
readout name: IC50

Sure, the documented IC50 for C[C@H]1CC[C@]2(C)[C@H]3C(=O)C=C4[C@@H]5C[C@@](C)(C(=O)O)CC[C@]5(C)CC[C@@]4(C)[C@]3(C)CC[C@H]2C1(C)C is 0.0649 µM

---

target: human 11β-HSD2 (Homo sapiens); construct: expressed in transfected cells; host or cells: HEK-293 cells, stably transfected; cell lysate; assay: 11β-HSD2 oxidase activity (conversion of radiolabelled cortisol to cortisone) in lysates of stably transfected HEK-293 cells; format: biochemical; details: 20 μM compound, 25 nM cortisol substrate, HEK-293 lysate
Marks after values point to notes of the source that are not given here.
Entries and their 11β-HSD2 % of control values follow.

Recorded 11β-HSD2 % of control, per entry:
CSc1nc2cc(C)c(C)cc2n1C1OC(CO)C(O)C1O (stereo not shown)    82.81 % of control
C[C@H]1CC[C@]2(C)[C@H]3C(=O)C=C4[C@@H]5C[C@@](C)(C(=O)O)CC[C@]5(C)CC[C@@]4(C)[C@]3(C)CC[C@H]2C1(C)C    13.93* % of control
CCN(CC)S(=O)(=O)c1ccc(OC)c(-c2nnc(-c3cc(S(=O)(=O)N(CC)CC)ccc3OC)o2)c1    115.4 % of control
Cc1nn(CC(=O)Nc2sc(C)c(C)c2C(N)=O)c(C)c1[N+](=O)[O-]    95.05 % of control
COc1cc(/C=N/NC(=O)CSc2nc3ccccc3n2Cc2ccc(C)cc2)cc(OC)c1OC(C)=O    137 % of control

Known value: human 11β-HSD2 (Homo sapiens) 11β-HSD2 % of control of the molecule COc1ccc(C(=O)C2=C(O)C(=O)N(CCCn3ccnc3)C2c2ccccc2)cc1Cl (stereo not shown) equals 121.6 % of control

Known value: human 11β-HSD2 (Homo sapiens) 11β-HSD2 % of control of the molecule COC(=O)[C@@]1(C)CC[C@]2(C)CC[C@]3(C)C(=CC(=O)[C@@H]4[C@@]5(C)CC[C@H](Oc6ccccc6C(=O)O)C(C)(C)[C@@H]5CC[C@]43C)[C@@H]2C1 equals 14.37* % of control

Known value: human 11β-HSD2 (Homo sapiens) 11β-HSD2 % of control of the molecule COc1ccc(CCNC(=O)C23CCC(C)(C(=O)C2=O)C3(C)C)cc1OC (stereo not shown) equals 139.5 % of control

Known value: human 11β-HSD2 (Homo sapiens) 11β-HSD2 % of control of the molecule Cc1cccc(C)c1C1C(SCC(=O)Nc2c(Cl)cccc2Cl)=NN=C1c1cccc([S+]([O-])N(C)C)c1 (stereo not shown) equals 120.9 % of control

Known value: human 11β-HSD2 (Homo sapiens) 11β-HSD2 % of control of the molecule CCOc1ccc(C2C(C(=O)c3ccc(Cl)cc3)=C(O)C(=O)N2CCCn2ccnc2)cc1OCC (stereo not shown) equals 104.3 % of control

---

Biological target: human 11β-HSD1 (Homo sapiens, UniProt P28845)
Construct: expressed in transfected cells; host or cells: HEK-293 cells, stably transfected; cell lysate
Assay: 11β-HSD1 reductase activity (conversion of radiolabelled cortisone to cortisol) in lysates of stably transfected HEK-293 cells
Assay type: biochemical
Details: Mittelwert (mean) of determinations 1-3; read-out: IC 50 11β-HSD1, Mittelwert
Protocol: Cells were grown in 10 cm dishes to 80% confluence and incubated for 16 h in steroid-free medium (charcoal-treated fetal calf serum (FCS) from HyClone, Logan, Utah). Cells were rinsed once with phosphate-buffered saline (PBS), detached and centrifuged for 3 min at 150×g. […] At the day of experiment, cell pellets were resuspended in buffer TS2 (100 mM NaCl, 1 mM EGTA, 1 mM EDTA, 1 mM MgCl2, 250 mM sucrose, 20 mM Tris-HCl, pH 7.4), sonicated and activities determined immediately. […]
Entries and their pIC50 values follow.
Note: pIC50 values are expressed as the negative base-10 logarithm of concentration in M.

Recorded pIC50, per entry:
CC(=O)OC1CC[C@]2(C)C3=C(C(=O)C[C@H]2C1(C)C)[C@]1(C)CCC(C(C)CCC(=O)O)[C@@]1(C)CC3=O (stereo partly shown) [BNW16]    6.84
COc1ccc(CCNC(=O)C23CCC(C)(C(=O)C2=O)C3(C)C)cc1OC (stereo not shown) [BNW7]    5.69
COC(=O)[C@@]1(C)CC[C@]2(C)CC[C@]3(C)C(=CC(=O)[C@@H]4[C@@]5(C)CC[C@H](Oc6ccccc6C(=O)O)C(C)(C)[C@@H]5CC[C@]43C)[C@@H]2C1 [BNW13]    6.16

Continue with the molecule presented below.
Sure, the documented pIC50 for C[C@H]1CC[C@]2(C)[C@H]3C(=O)C=C4[C@@H]5C[C@@](C)(C(=O)O)CC[C@]5(C)CC[C@@]4(C)[C@]3(C)CC[C@H]2C1(C)C [BNW25] is 6.76
